B1: RAB11A (parent)
chain: AVPTDEARAFAEKNGLSFIETSAL

variants of: B1; test: protein stability index of a GFP-peptide fusion (GPS, HEK-293T) (PSI 1-6); higher = more stable; settings: c terminus: a fixed tail appended;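 also: lentivirally expressed fusions sorted by FACS into six bins by GFP to DsRed ratio, PSI derived from sequencing read proportions per bin multiplied by bin number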
Please go through the items and note down their protein stability index.
Answer with a number only.

## Task Reported protein stability index for APPTDEARAFAEKNGLSFIETSAL [V2P] : what is it?
## Result 2.98

## Task Which protein stability index is reported for this variant? AVDTDEARAFAEKNGLSFIETSAL [P3D]
## Result 3.01

## Task Returns the measured protein stability index for the input variant. Input: AVPTDEARTFAEKNGLSFIETSAL [A9T]
## Result 2.96
